target: GTPase KRas (Homo sapiens, UniProt P01116, G12C)
Sequence (P01116 whole entry G12C): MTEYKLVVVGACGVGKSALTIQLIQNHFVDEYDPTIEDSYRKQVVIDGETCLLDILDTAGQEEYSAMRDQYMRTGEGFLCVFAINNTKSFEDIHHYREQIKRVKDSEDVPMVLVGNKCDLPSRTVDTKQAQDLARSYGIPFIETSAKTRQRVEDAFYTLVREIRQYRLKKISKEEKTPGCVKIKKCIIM
pIC50: −log10 of the molar value.
Label criterion not met if pIC50 falls below 7; label criterion met in every other case.

- compound: "C=CC(=O)N1CCN2C(=O)c3ccc(-c4c(C)ccc5[nH]ncc45)c(Cl)c3OC[C@@H]2C1"
  category: "criterion not met"
- compound: "C=CC(=O)N1CCN2Cc3ccc(-c4c(C)ccc5[nH]ncc45)c(Cl)c3OCCC2C1 (stereo in doubt; 20)"
  category: "criterion not met"
- compound: "C=CC(=O)N1CCN2Cc3ccc(-c4c(C)ccc5[nH]ncc45)c(Cl)c3OCCC2C1 (stereo in doubt; 19)"
  category: "criterion not met"
- compound: "C=CC(=O)N1CCN2Cc3ccc(-c4c(C)ccc5[nH]ncc45)c(Cl)c3OC[C@@H]2C1"
  category: "criterion not met"
- compound: "C=CC(=O)N1CCN2Cc3cc(Cl)c(-c4c(O)cccc4Cl)c(F)c3OC[C@H]2C1"
  category: "criterion met"
- compound: "C=CC(=O)N1CCN2Cc3ccc(-c4c(O)cccc4F)c(Cl)c3OC[C@H]2C1"
  category: "criterion not met"
- compound: "C#Cc1cc(CN2CCN(C(=O)C=C)CC2)cc(F)c1-c1c(O)cccc1Cl"
  category: "criterion not met"
- compound: "C=CC(=O)N1CCN2Cc3cc(C#CC)c(-c4c(O)cccc4Cl)c(F)c3OC[C@H]2C1"
  category: "criterion met"
- compound: "C=CC(=O)N1C[C@H]2CCOc3c(Cl)c(-c4c(O)cccc4F)c(F)c4ncnc(c34)N2C[C@H]1C"
  category: "criterion met"
- compound: "C=CC(=O)N1CCN2Cc3cc(F)c(-c4c(O)cccc4F)c(F)c3OC[C@H]2C1"
  category: "criterion not met"
- compound: "C#Cc1cc2c(c(F)c1-c1c(O)cccc1Cl)OC[C@H]1CN(C(=O)C=C)CCN1C2"
  category: "criterion met"
- compound: "C=CC(=O)N1CCN2Cc3cc(C#N)c(-c4c(O)cccc4Cl)c(F)c3OC[C@H]2C1"
  category: "criterion met"
